Biological target: T1, human IL-18BP (human, UniProt O95998 31-194)
T1 construct: UniProt printed as 095998; also called hIL-18BP
T1 sequence: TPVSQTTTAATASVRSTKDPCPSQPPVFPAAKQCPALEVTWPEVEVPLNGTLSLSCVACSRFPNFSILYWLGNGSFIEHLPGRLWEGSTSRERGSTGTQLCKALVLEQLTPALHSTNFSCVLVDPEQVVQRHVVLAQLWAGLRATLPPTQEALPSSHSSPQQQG
Experiment: BLI, apparent KD
value_type: Kd (pM)
Report as a plain number; the unit pM is understood.

Record SA301a LC-Y91E (antibody, name in Kabat numbering, V domains shown, IgG1 kappa) VH: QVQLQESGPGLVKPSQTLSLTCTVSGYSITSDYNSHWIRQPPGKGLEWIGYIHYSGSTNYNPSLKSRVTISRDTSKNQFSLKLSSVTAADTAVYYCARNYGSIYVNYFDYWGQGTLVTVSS VL: EIVLTQSPATLSLSPGERATLSCSASSSVSYMYWYQQKPGQAPRPLIYRTSNLASGIPARFSGSGSGTDFTLTISSLEPEDFAVYYCQQEHSYPTFGGGTKVEIK , field Kd: 310

Record SA301a LC-Q90K (antibody, name in Kabat numbering, V domains shown, IgG1 kappa) VH: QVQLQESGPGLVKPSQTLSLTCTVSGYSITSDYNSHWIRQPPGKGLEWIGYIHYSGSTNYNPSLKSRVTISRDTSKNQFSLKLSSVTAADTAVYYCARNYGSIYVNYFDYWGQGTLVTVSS VL: EIVLTQSPATLSLSPGERATLSCSASSSVSYMYWYQQKPGQAPRPLIYRTSNLASGIPARFSGSGSGTDFTLTISSLEPEDFAVYYCQKYHSYPTFGGGTKVEIK , field Kd: 100

Record SA301a LC-Q89D (antibody, V domains shown) VH: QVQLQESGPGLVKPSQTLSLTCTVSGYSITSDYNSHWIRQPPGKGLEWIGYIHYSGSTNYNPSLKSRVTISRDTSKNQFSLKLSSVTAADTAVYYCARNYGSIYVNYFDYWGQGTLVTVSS VL: EIVLTQSPATLSLSPGERATLSCSASSSVSYMYWYQQKPGQAPRPLIYRTSNLASGIPARFSGSGSGTDFTLTISSLEPEDFAVYYCDQYHSYPTFGGGTKVEIK , field Kd: 20
